- Tested system: human ALDH2 wild type (Homo sapiens)
- Construct: His-tag (pTrcHis vector) (N); made in house; host or cells: E. coli BL21
- Protocol details: ALDH2 enzymatic assay (NADH at 340 nm), recombinant wild type enzyme
- Format: biochemical
- Set-up: key: −: no activation or inhibition; +: activation less than control 1; ++: activation similar to control 1, within 10%; +++: activation more than control 1 and less than control (compound 161); ++++: activation similar to compound 161, within 10%
- Condition: activation relative to benchmarks control 1 and compound 161
Endpoint name: ALDH2 (wild-type)

molecule=COc1cc(F)c(CNC(=O)c2c(Cl)ccnc2Cl)cc1F tested_system="human ALDH2 wild type (Homo sapiens)" meas_value=++
molecule=COc1ccc(CNC(=O)c2c(OCC3CC3)ccnc2Cl)cc1F tested_system="human ALDH2 wild type (Homo sapiens)" meas_value=++
molecule=COc1ccc(CNC(=O)c2c(Cl)cccc2OC(C)C)cc1F tested_system="human ALDH2 wild type (Homo sapiens)" meas_value=+++
molecule=COc1ccc(CNC(=O)c2c(Cl)cccc2Br)cc1F tested_system="human ALDH2 wild type (Homo sapiens)" meas_value=+
molecule="CCC(C)Oc1nccc(Cl)c1C(=O)NCc1ccc(OC)c(F)c1 (stereo not shown)" tested_system="human ALDH2 wild type (Homo sapiens)" meas_value=++

Data request: Item `COc1ccc(CNC(=O)c2c(C)cccc2C)cc1` : provide ALDH2 (wild-type)
Data returned: +

Data request: Item `COc1ccc(CNC(=O)c2c(NCCO)cccc2NCCO)cc1F` : provide ALDH2 (wild-type)
Data returned: −

Data request: Item `COc1ccc(CNC(=O)c2c(Cl)cccc2Cl)cc1F` : provide ALDH2 (wild-type)
Data returned: ++

Data request: Item `COc1ccc(CNC(=O)c2c(C(F)(F)F)ccnc2OCC(C)C)cc1F` : provide ALDH2 (wild-type)
Data returned: +

Data request: Item `COc1ccc(CNC(=O)c2c(C)ccnc2OCC(C)C)cc1F` : provide ALDH2 (wild-type)
Data returned: +

Data request: Item `COc1ccc(CNC(=O)c2c(Cl)cccc2NCCO)cc1F` : provide ALDH2 (wild-type)
Data returned: +

Data request: Item `COc1ccc(CNC(=O)c2c(Cl)ccnc2OC(C)C)cc1F` : provide ALDH2 (wild-type)
Data returned: ++

Data request: Item `COc1ccc(CNC(=O)c2ccc(Br)cc2C)cc1` : provide ALDH2 (wild-type)
Data returned: +

###

- Tested system: human ALDH2*2 recombinant mutant enzyme (E487K) (Homo sapiens, UniProt P05091, E504K)
- Construct: His-tag (pTrcHis vector) (N); made in house; host or cells: E. coli BL21
- Sequence (P05091 18-517 E504K): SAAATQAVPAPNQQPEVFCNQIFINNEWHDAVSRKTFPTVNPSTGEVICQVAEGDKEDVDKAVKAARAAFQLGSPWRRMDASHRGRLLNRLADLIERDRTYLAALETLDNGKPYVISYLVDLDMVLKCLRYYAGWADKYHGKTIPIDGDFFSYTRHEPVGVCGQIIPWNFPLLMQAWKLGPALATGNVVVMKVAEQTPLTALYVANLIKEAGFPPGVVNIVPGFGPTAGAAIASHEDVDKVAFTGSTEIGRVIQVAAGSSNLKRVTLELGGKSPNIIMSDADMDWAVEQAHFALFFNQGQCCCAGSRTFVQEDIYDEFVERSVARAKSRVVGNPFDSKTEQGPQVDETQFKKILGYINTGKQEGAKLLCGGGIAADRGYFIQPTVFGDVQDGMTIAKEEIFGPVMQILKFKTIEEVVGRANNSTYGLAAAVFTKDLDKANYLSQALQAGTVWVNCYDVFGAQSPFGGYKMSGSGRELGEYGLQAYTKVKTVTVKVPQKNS
- Protocol details: ALDH2 enzymatic assay (NADH at 340 nm), recombinant mutant enzyme
- Format: biochemical
- Parameters: key: −: no activation or inhibition; +: activation less than control 1; ++: activation similar to control 1, within 10%; +++: activation more than control 1 and less than control (compound 161); ++++: activation similar to compound 161, within 10%
- Condition: activation relative to benchmarks control 1 and compound 161
Endpoint name: ALDH2 (mutant)

Sample answers from the record:
compound="CCC(C)S(=O)(=O)c1nccc(Cl)c1C(=O)NCc1ccc(OC)c(F)c1 (stereo not drawn)" endpoint_name="ALDH2 (mutant)" meas_value=+
compound=COc1ccc(CNC(=O)c2c(C)cccc2NCC(C)C)cc1F endpoint_name="ALDH2 (mutant)" meas_value=++
compound=COc1ccc(CNC(=O)c2c(C)ccnc2OC2CCC2)cc1F endpoint_name="ALDH2 (mutant)" meas_value=+
compound=COc1ccc(CNC(=O)c2ccc(Br)cc2C)cc1F endpoint_name="ALDH2 (mutant)" meas_value=+
compound=COc1ccc(CNC(=O)c2c(Cl)cccc2NC2CCCC2)cc1F endpoint_name="ALDH2 (mutant)" meas_value=+
compound="COc1ccc(C(C)NC(=O)c2c(Cl)ccnc2OCC2CC2)cc1F (stereo not drawn)" endpoint_name="ALDH2 (mutant)" meas_value=+
compound=COc1ccc(CNC(=O)c2c(Cl)cccc2Oc2ccc(Cl)cc2)cc1F endpoint_name="ALDH2 (mutant)" meas_value=+
compound=COc1ccc(CNC(=O)c2c(Cl)cccc2Cl)cc1O endpoint_name="ALDH2 (mutant)" meas_value=+

Data request: Item `COc1ccc(CNC(=O)c2c(Cl)cccc2OC)cc1F` : provide ALDH2 (mutant)
Data returned: +++

Data request: Item `COc1ccc(CNC(=O)c2c(Cl)cccc2Oc2cccc(Cl)c2)cc1F` : provide ALDH2 (mutant)
Data returned: ++

Data request: Item `O=C(O)c1ccc(CNC(=O)c2c(Cl)cccc2Br)cc1` : provide ALDH2 (mutant)
Data returned: +

Data request: Item `O=C(NCc1ccc(OC(F)(F)F)c(F)c1)c1c(Cl)ccnc1Cl` : provide ALDH2 (mutant)
Data returned: ++

Data request: Item `COc1cc(CNC(=O)c2c(Cl)ccnc2Cl)ccc1F` : provide ALDH2 (mutant)
Data returned: −

Data request: Item `COc1c(F)cc(CNC(=O)c2c(Cl)ccnc2Cl)cc1F` : provide ALDH2 (mutant)
Data returned: ++

Data request: Item `COc1ccc(CNC(=O)c2c(Cl)ccnc2OCC2CC2)cn1` : provide ALDH2 (mutant)
Data returned: +

Data request: Item `COc1ccc(CNC(=O)c2c(Cl)ccnc2Oc2ccccc2)cc1F` : provide ALDH2 (mutant)
Data returned: +

Data request: Item `COc1ccc(CNC(=O)c2c(Cl)cccc2Oc2ccc(C)cc2)cc1F` : provide ALDH2 (mutant)
Data returned: +

Data request: Item `COc1ccc(CNC(=O)c2c(Cl)ccnc2CCC(C)C)cc1F` : provide ALDH2 (mutant)
Data returned: +

Data request: Item `O=C(NCc1ccc(OC(F)(F)F)c(F)c1)c1c(Cl)ccnc1NCC1CC1` : provide ALDH2 (mutant)
Data returned: +

###

- Tested system: human ALDH2 wild type (Homo sapiens)
- Construct: His-tag (pTrcHis vector) (N); made in house; host or cells: E. coli BL21
- Protocol details: ALDH2 enzymatic assay (NADH at 340 nm), recombinant wild type enzyme
- Assay type: biochemical
- Parameters: key: −: no activation or inhibition; +: activation less than control 1; ++: activation similar to control 1, within 10%; +++: activation more than control 1 and less than control (compound 161); ++++: activation similar to compound 161, within 10%
- Condition: activation relative to benchmarks control 1 and compound 161
Endpoint name: ALDH2 (wild-type)

chemical_structure=CCCSc1nccc(Cl)c1C(=O)NCc1ccc(OC)c(F)c1 tested_system="human ALDH2 wild type (Homo sapiens)" endpoint_name="ALDH2 (wild-type)" meas_value=++++
chemical_structure=COc1ccc(CNC(=O)c2c(C(F)(F)F)ccnc2OC(C)C)cc1F tested_system="human ALDH2 wild type (Homo sapiens)" endpoint_name="ALDH2 (wild-type)" meas_value=+
chemical_structure=COc1ncc(CNC(=O)c2c(Cl)ccnc2OCC2CC2)cc1F tested_system="human ALDH2 wild type (Homo sapiens)" endpoint_name="ALDH2 (wild-type)" meas_value=+

###

- Tested system: human ALDH2*2 recombinant mutant enzyme (E487K) (Homo sapiens, UniProt P05091, E504K)
- Construct: His-tag (pTrcHis vector) (N); made in house; host or cells: E. coli BL21
- Protocol details: ALDH2 enzymatic assay (NADH at 340 nm), recombinant mutant enzyme
- Assay type: biochemical
- Design: key: −: no activation or inhibition; +: activation less than control 1; ++: activation similar to control 1, within 10%; +++: activation more than control 1 and less than control (compound 161); ++++: activation similar to compound 161, within 10%
- Condition: activation relative to benchmarks control 1 and compound 161
- From the text: ALDH2 catalyzes the oxidative reaction of substrate acetaldehyde to acetic acid using NAD^+ as a cofactor. Enzymatic activity, or catalytic rate, of aldehyde dehydrogenase (ALDH2) can be measured spectrophotometrically at UV wavelength λ340 nm by the accumulation of reduced product NADH derived from NAD^+. […] This method is well-established in the literature [e.g. D. K. Rex, W. F. Bosron, J. E. Smialek, T. K. Li, Alcohol Clin Exp Res 9, 147 (1985)]. […]
Endpoint name: ALDH2 (mutant)

Sample answers from the record:
chemical_structure=COc1ccc(CNC(=O)c2c(Cl)cccc2OCC(C)C)cc1F meas_value=++++
chemical_structure=COc1ccc(CNC(=O)c2c(Cl)ccnc2S(=O)(=O)C(C)C)cc1F meas_value=+
chemical_structure=COc1ccc(CNC(=O)c2c(Cl)cc[n+]([O-])c2Cl)cc1F meas_value=+
chemical_structure=COc1ccc(CNC(=O)c2c(Cl)cccc2OCC(C)(C)N(C)C)cc1F meas_value=+
chemical_structure=CS(=O)(=O)c1ccc(CNc2cccc(Cl)c2C(=O)NCc2ccc3c(c2)OCO3)cc1 meas_value=+

Data request: Item `CCC(CC)Oc1cccc(Cl)c1C(=O)NCc1ccc(OC)c(F)c1` : provide ALDH2 (mutant)
Data returned: +++

Data request: Item `CCC(CC)Oc1nccc(C(F)(F)F)c1C(=O)NCc1ccc(OC)c(F)c1` : provide ALDH2 (mutant)
Data returned: +

Data request: Item `COc1ccc(CNC(=O)c2c(Cl)cncc2OCC(C)C)cc1F` : provide ALDH2 (mutant)
Data returned: ++
